Source of measurements: patent US20110059953A1

# Target entity: T-p53C-Y220C (Homo sapiens, UniProt P04637, M133L/N239Y/N268D/V203A/Y220C)
# Construct: For all other experiments, the DNA coding for residues 94-312 of T-p53C was inserted into a modified pET24a(+) vector; 6xHis tag + B. stearothermophilus dihydrolipoyl acetyltransferase lipoyl domain (aa 1-85) + TEV site (N, cleaved yes); made in house; host or cells: Escherichia coli BL21 (DE3) or C41 (DE3)
# Procedure summary: Thermal denaturation using fluorescence (Sypro Orange)
# Type: binding
# Stated conditions: further compounds; 10 μM protein
I'd appreciate it if you could supply ΔTm (° C.) values for the items below.
Please state the number and follow it with the unit.

// query What measured ΔTm (° C.) goes with [2H]C(=O)OC(C)C(=O)NC(N)=O (stereo not shown) ?
// result 0.06 °C

// query Moving on to the next molecule: CCn1c2ccccc2c2cc(CN(C)CC(O)c3ccccc3)ccc21 (stereo not shown)
// result 0.18 °C

// query And the next one, `[2H]C(=O)N1CCN(Cc2ccccc2)CC1` ?
// result 0.2 °C

// query Cool, now CCn1c2ccccc2c2cc(CNCC(C)O)ccc21 (stereo not shown)
// result 0.66 °C

// query Would you kindly repeat that for `CCn1c2ccccc2c2cc(CN3CCCN(C)CC3)ccc21` ?
// result 0.395 °C

// query Note, next up: `CCn1cc(C(=O)OCC(=O)NC(=O)NCc2ccco2)c2ccccc21`
// result 0.28 °C

// query Item: CCn1cc(C(=O)NC(c2cccc(F)c2)c2nccn2C)c2ccccc21 (stereo not shown)
// result 0.09 °C

// query Likewise for `CNCc1ccc2c(c1)c1ccccc1n2CCBr` ?
// result 0.39 °C

// query And for `CCn1c2ccccc2c2cc(CN3CCc4ccccc4C3)ccc21` ?
// result 0.455 °C

// query Also `CCOC(=O)c1c(C)n(CC)c2ccc(OC(=O)Nc3ccc(Cl)cc3)cc12` , if possible.
// result 0.31 °C

// query Quick one: `CCn1cc(C=C(C#N)C(N)=O)c2ccccc21`
// result 0.2 °C

// query Thanks! And `[2H]C(=O)N1CCN(c2ncccn2)CC1` ?
// result 0.19 °C

// query Item: `CCn1cc(C(=O)Nc2cccc(S(=O)(=O)N(C)C)c2)c2ccccc21`
// result 0.44 °C

// query Could you do the same for `CCn1c2ccccc2c2cc(NC(=O)COc3ccc([N+](=O)[O-])nc3)ccc21` , please?
// result 0.27 °C

// query How about this molecule: `COc1ccc2c(c1)c(C(=O)OCC(=O)Nc1cc(F)ccc1F)c(C)n2C1CC1`
// result 0.36 °C

// query What about `CCOc1ccc2c(c1)c(CCN)cn2CC` ?
// result 0.29 °C

// query Same read-out for `CNCc1ccc2c(c1)c1ccccc1n2CCCl` ?
// result 0.7 °C

// query Request: `CCn1c2ccccc2c2cc(NC(=O)CCCC(=O)O)ccc21`
// result 0.083 °C

// query Now try CCn1cc(C2CC3CN(C)C(=O)C34CCCN24)c2ccccc21 (stereo not shown) .
// result 0.14 °C

// query Again, but for CCn1cc(C(=O)OCC2CNC(=O)O2)c2ccccc21 (stereo not shown)
// result 0.15 °C

// query And the next one, `[2H]C(=O)N(C)Cc1nc2ccccc2c(=O)[nH]1` ?
// result 0.29 °C

// query Also `[2H]C(=O)OCC(=O)NC(=O)NC` , if possible.
// result 0.31 °C

// query Also need `[2H]C(=O)Nc1cc(S(=O)(=O)N2CCN(C)CC2)ccc1OC` , thanks.
// result 0.42 °C

// query // repeat for `[2H]C(=O)OCC(=O)NC(=O)NCC` and report
// result 0.18 °C

// query Also, `Cc1c(C=O)c2ccccc2n1C` please.
// result 0.2 °C

// query Can you handle `CCn1cc(C(=O)OC)c2ccccc21` next?
// result 0.4 °C

// query Same thing, different molecule: `CCn1cc(C(=O)OCC(=O)c2ccc[nH]2)c2ccccc21`
// result 0.24 °C

// query Entry `[2H]NNS(=O)(=O)c1ccc(OC(F)(F)F)cc1` please
// result 0.43 °C

// query Try this molecule too: `Cn1cc(NN)c2ccccc21`
// result 0.093 °C

// query Same question for `COc1ccc2c(c1)c(C(=O)NCCc1ccccn1)c(C)n2C1CC1` please.
// result 0.29 °C

// query # repeat for `CCn1c2ccccc2c2cc(NC(=O)CN3C(=O)NC4(CCCC4)C3=O)ccc21`
// result 0.365 °C

// query Here is the next molecule: `CCn1c2ccccc2c2cc(NC(=O)CO)ccc21`
// result 0.2 °C

// query Lookup `[2H]C(=O)N1CCc2[nH]c3ccccc3c2C1`
// result 0.3741 °C

// query Then what about the molecule `CCn1c2ccccc2c2cc(CN(C)c3ccc4nnnn4n3)ccc21` ?
// result 0.12 °C

// query Input `CCOC(=O)c1c(C)n(C)c2ccc(OCCN(C)C)cc12`
// result 0.14 °C

// query Here is the next molecule: `CCCN1CCN(CC(=O)Nc2ccc3c(c2)c2ccccc2n3CC)CC1`
// result 0.23 °C

// query # iterate: CCn1c2ccccc2c2cc(NC(=O)C(C)OC(=O)c3n[nH]c(=O)c4ccccc34)ccc21 (stereo not shown)
// result 0.145 °C

// query Also `[2H]C(=O)OCC(=O)NCC(F)(F)F` , if possible.
// result 0.1 °C

// query Same again, this time with `CCn1c2ccccc2c2cc(NC(=O)CN3C(=O)NC4(CCCCC4)C3=O)ccc21`
// result 0.24 °C

// query Same lookup for CCOC(=O)c1c(C)n(C2CC2)c2ccc(OC(=O)C3COc4ccccc4O3)cc12 (stereo not shown) , please.
// result 0.26 °C

// query Cool, now `CCn1c2ccccc2c2cc(NC(=O)COc3ccc(S(=O)(=O)N4CCOCC4)cc3)ccc21`
// result 0.195 °C

// query Try `CCn1c2ccccc2c2cc(CNCC(F)(F)F)ccc21` next.
// result 0.4 °C

// query Also need `CCn1c2ccccc2c2cc(CN3CCN(Cc4ccccc4C(F)(F)F)CC3)ccc21` , thanks.
// result 0.08 °C
